# protocol.summary: HPLC-MS/MS quantification of 9 compounds in plasma of RSV-infected mice after Scutellaria baicalensis Georgi administration
# Format: in vivo, BALB/c mice
# Parameters: unit not given here
# experimental.parameters: RSV-infected mice; 1 h after last gavage of Scutellaria baicalensis Georgi extract; mean ± SD, n = 6
# Experimental: The study employed a Vanquish high-performance liquid chromatograph for chromatographic separation, with a HALO C18 column (2.1 × 100 mm, 2.7 μm) as the chromatographic column. Mass spectrometry was performed using a quadrupole-electrostatic field orbitrap desktop mass spectrometer equipped with an electrospray ion source (ESI). […] Quantitative analysis was performed using the selective ion detection (SIM) mode (Table S1). […]
Please go through the items and note down their drug-containing plasma content.

Exam item: Recorded drug-containing plasma content of "COc1c(O)cc2oc(-c3ccccc3)cc(=O)c2c1O" , please.
Marked response: 160.88± 15.86

Exam item: // next record "O=c1cc(-c2ccccc2)oc2cc(O)cc(O)c12"
Marked response: 15.38± 4.94

Exam item: Now the compound "O=c1cc(-c2ccccc2)oc2c(O)c(O)cc(O)c12"
Marked response: 12.42± 7.14

Exam item: Would you mind doing "COc1c(O)cc(O)c2c(=O)cc(-c3ccccc3)oc12" as well?
Marked response: 181.04± 4.74

Exam item: Same question, COc1c(OC2OC(C(=O)O)C(O)C(O)C2O)cc2oc(-c3ccccc3)cc(=O)c2c1O [Oroxylin A 7-O-beta-D-glucuronide] this time
Marked response: 138.74± 3.62

Exam item: COc1c(O[C@@H]2O[C@H](C(=O)O)[C@@H](O)[C@H](O)[C@H]2O)cc(O)c2c(=O)cc(-c3ccccc3)oc12 [Wogonoside] , same question.
Marked response: 1078.05± 63.01

----------
# protocol.summary: HPLC-MS/MS quantification of 9 compounds in plasma of RSV-infected mice after Scutellaria baicalensis Georgi administration
# Assay type: in vivo, BALB/c mice
# Parameters: unit not given here
# experimental.parameters: RSV-infected mice; 2 h after last gavage of Scutellaria baicalensis Georgi extract; mean ± SD, n = 6
So I've got a bunch of molecules here, and I need their drug-containing plasma content values.
I only need the number, thanks.

Exam item: Need drug-containing plasma content, item COc1c(O)cc2oc(-c3ccccc3)cc(=O)c2c1O [Oroxylin A]
Marked response: 75.84

Exam item: Next molecule: COc1c(O)cc(O)c2c(=O)cc(-c3ccccc3)oc12 [Wogonin]
Marked response: 10.35

Exam item: Cool, now O=c1cc(-c2ccccc2)oc2cc(O)cc(O)c12 [Chrysin]
Marked response: 21.43

Exam item: What about COc1c(O[C@@H]2O[C@H](C(=O)O)[C@@H](O)[C@H](O)[C@H]2O)cc(O)c2c(=O)cc(-c3ccccc3)oc12 [Wogonoside] ?
Marked response: 1333.51

Exam item: Queued: COc1c(OC2OC(C(=O)O)C(O)C(O)C2O)cc2oc(-c3ccccc3)cc(=O)c2c1O [Oroxylin A 7-O-beta-D-glucuronide]
Marked response: 315.26

Exam item: // query: O=c1cc(-c2ccccc2)oc2c(O)c(O)cc(O)c12 [Norwogonin]
Marked response: 0

----------
# protocol.summary: HPLC-MS/MS quantification of 9 compounds in plasma of RSV-infected mice after Scutellaria baicalensis Georgi administration
# Format: in vivo, BALB/c mice
# Design: unit not given here
# experimental.parameters: RSV-infected mice; 10 h after last gavage of Scutellaria baicalensis Georgi extract; mean ± SD, n = 6
assay.endpoint: drug-containing plasma content
# answer = number (no unit)

Exam item: # query: drug-containing plasma content of entry O=c1cc(-c2ccccc2)oc2c(O)c(O)cc(O)c12 [Norwogonin]
Marked response: 16.07

Exam item: Follow-up entry: COc1c(O)cc(O)c2c(=O)cc(-c3ccccc3)oc12 [Wogonin]
Marked response: 14.65

Exam item: Check COc1c(O[C@@H]2O[C@H](C(=O)O)[C@@H](O)[C@H](O)[C@H]2O)cc(O)c2c(=O)cc(-c3ccccc3)oc12 [Wogonoside] too.
Marked response: 318.50
